Tested on: IGROV-1
Assay: NCI tumour cell line growth inhibition, 48 h
Activity calls are given as the source filed them. No stated cut-off is given here; in the data, active = GI50 up to about 1.1 µM and inactive = higher.
Each entry below carries its reported GI50.

Recorded GI50, per entry:
1. COC(=O)[C@H](Cc1ccccc1)NC(=O)N1CCCN(C(=O)N[C@@H](Cc2ccccc2)C(=O)OC)CCCN(C(=O)N[C@@H](Cc2ccccc2)C(=O)OC)CCC1 = 16.4 µM (inactive)
2. C[C@]12CC[C@@H]3c4ccc(O)cc4CC[C@H]3[C@@H]1C/C(=C\c1ccncc1)C2=O = 15.1 µM (inactive)
3. O=C1C[C@H](COCc2ccccc2)NC(=O)C[C@H](COCc2ccccc2)NC(=O)C[C@H](COCc2ccccc2)N1 = > 100 µM (inactive)
4. O=[N+]([O-])c1ccc(-c2nc3cc([N+](=O)[O-])ccc3[nH]2)cc1 = 30.5 µM (inactive)

Consider the additional compound presented here.
Reported GI50 for Cc1cc(C)c(S(=O)(=O)N(CCCCN)OCCCN)c(C)c1 was 13.6 µM (inactive)

----------
Tested on: Hs-578T
Test: NCI tumour cell line growth inhibition, 48 h
The source made the active and inactive calls. Cut-off read from the data, not from the text of the source: active = GI50 up to about 1.1 µM and inactive = higher.
METRIC: GI50

1) O=C1CC(=O)c2c(O)cc(O)c(c2O)-c2c(ccc(O)c2O)C2=CC(=O)c3c(O)cc(O)c(c3O2)-c2c1ccc(O)c2O.O=C1CC2(O)Oc3c1c(O)cc(O)c3-c1c(ccc(O)c1O)-c1cc(=O)c3c(O)cc(O)c(c3o1)-c1c2ccc(O)c1O = > 50 µM (inactive)
2) Cc1ccc(/C=C2\CCCc3ccccc3C2=O)cc1 = 12.4 µM (inactive)
3) O=c1c(-c2ccc(O)cc2)coc2cc(O)cc(O)c12 = 65.2 µM (inactive)

Moving on to the next compound.
Test item COc1ccccc1Cc1ccc(C2C=CC3(CC(=O)C=C3C)C(=O)C2)o1 (centres undefined) ; Hs-578T; reported GI50 was 20.2 µM (inactive)

----------
Test system: T47D
Assay: NCI tumour cell line growth inhibition, 48 h
Activity calls are given as the source filed them. No stated cut-off is given here; in the data, active = GI50 up to about 1.1 µM and inactive = higher.
Parameter: GI50. Scope: all listed entries.

// field: GI50; key: C=C1c2ccccc2Oc2nc3nc(N)c(C#N)c(N)c3c(N)c21 ; value = 51.1 µM (inactive)

----------
Recorded GI50, one value per entry.
System: SK-MEL-5
Assay: NCI tumour cell line growth inhibition, 48 h
Active and inactive are the calls of the source. Rule as the data show it: active = GI50 up to about 1.1 µM and inactive = higher.

Recorded GI50, per entry:
1. Oc1ccc(CCNCc2cc3c(cc2Br)OCO3)cc1 = 27.1 µM (inactive)
2. CC(C)(C)OC(=O)NC12C3C4C1C1C2C3C41NC(=O)OC(C)(C)C (stereo not given) = 26.5 µM (inactive)
3. C=CC(CCc1ccc(C(=O)OCC)cc1)c1c(N)nc(N)[nH]c1=O (stereo not given) = 23.5 µM (inactive)
4. COC(=O)C1CC2C=CC=CC(=O)C2(C)C1 (stereo not given) = 51.1 µM (inactive)

// GI50 lookup, molecule = O=C(O)c1ccc(Cc2ccccc2C(=O)O)cc1 , result: > 100 µM (inactive)

Briefly, GI50 measured for CC12OC(=O)[C@@]3(O)CCC4C(C[C@H]5O[C@]56CC=CC(=O)[C@]46C)C45OC[C@H]6C(=O)O[C@@H]1C[C@@]6(C)[C@H](C4=O)C23O5 (stereo not given in full) : 1.53 µM (inactive)

Lab note: Clc1sc(Cl)c2c1[C@@H](Cl)C[C@@H]2Br gave GI50 of > 100 µM (inactive)

The measured GI50 associated with CCOC(=O)c1cc(/C=C/C(C)=C/C(=O)OC)n(C)c1C reads 52.1 µM (inactive)

// sample C=C1C(=O)c2cc3c(cc2C(c2cc(OC)c(OC)c(OC)c2)[C@@H]1C(=O)O)OCO3 (stereo not given in full) , its GI50 was 50.7 µM (inactive)

The molecule CN1c2ccccc2N(C)C2C1N(C)c1ccccc1N2C (stereo not given) showed GI50 equal to 3.72 µM (inactive)
